Target: Muscarinic acetylcholine receptor M1 (Homo sapiens)
Assay: Positive allosteric modulation at human muscarinic M1 receptor expressing CHO cells assessed as potentiation of acetylcholine-induced calcium mobilization by FLIPR assay
Type: functional, cell-based
// log10 IP lookup, one value per entry
REPORTED METRIC: log10 IP (log10 of the value in µM)

| MOLECULE | RESULT NUMBER |
| --- | --- |
| O=C(O)c1cc(CN2CCC(c3ncccn3)CC2)c2ccccn2c1=O | 1.11 |
| N#Cc1ccc(N2CCN(Cc3cc(C(=O)O)c(=O)n4ccccc34)CC2)cc1 | -0.28 |
| O=C(O)c1cc(CN2CCC(n3nnc4ccccc43)CC2)c2ccccn2c1=O | 0.78 |
| CCOC(=O)C1CN(Cc2cc(C(=O)O)c(=O)n3ccccc23)Cc2ccccc21 (stereo not drawn) | 0.56 |
| O=C(O)c1cc(CN2CCC(c3cccnc3F)CC2)c2ccccn2c1=O | -0.08 |
| O=C(O)c1cc(CN2CCC(c3ccc(F)cc3)CC2)c2ccccn2c1=O | 0.23 |
| O=C(O)c1cc(CN2CCC(c3ccc(Cl)cc3)CC2)c2ccccn2c1=O | -0.11 |

----------
Target: Muscarinic acetylcholine receptor M1 (Homo sapiens) (UniProt P11229)
Sequence (P11229 whole entry): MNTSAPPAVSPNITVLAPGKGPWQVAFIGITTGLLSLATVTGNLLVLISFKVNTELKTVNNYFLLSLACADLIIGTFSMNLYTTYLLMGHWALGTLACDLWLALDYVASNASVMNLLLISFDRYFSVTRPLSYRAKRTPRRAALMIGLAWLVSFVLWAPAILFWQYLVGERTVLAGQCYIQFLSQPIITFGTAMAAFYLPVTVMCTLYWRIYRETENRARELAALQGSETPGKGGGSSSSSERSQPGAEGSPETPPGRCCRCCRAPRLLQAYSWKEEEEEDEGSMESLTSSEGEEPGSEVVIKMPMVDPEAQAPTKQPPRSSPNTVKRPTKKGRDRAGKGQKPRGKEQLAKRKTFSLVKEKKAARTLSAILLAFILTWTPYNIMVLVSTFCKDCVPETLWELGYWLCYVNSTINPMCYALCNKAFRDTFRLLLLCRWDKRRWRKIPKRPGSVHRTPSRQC
Assay: Positive allosteric modulation at human muscarinic M1 receptor expressing CHO cells assessed as potentiation of acetylcholine-induced calcium mobilization by FLIPR assay
Type: functional, cell-based
Entries annotated with measured IP

| MOLECULE | UNITS OF MEASURE | RELATION SIGN | IP |
| --- | --- | --- | --- |
| O=C(O)c1cc(CN2CCC(c3ccncc3)CC2)c2ccccn2c1=O | µM | = | 0.95 |
| O=C(O)c1cc(CN2CCc3cnccc3C2)c2ccccn2c1=O | µM | = | 0.9 |
| COC(=O)C1c2ccccc2CCN1Cc1cc(C(=O)O)c(=O)n2ccccc12 (configuration not stated) | µM | = | 1.7 |
| O=C(O)c1cc(CN2CCC(n3ccnc3)CC2)c2ccccn2c1=O | µM | = | 1.9 |
| Cc1ccc2c(c1)CCN(Cc1cc(C(=O)O)c(=O)n3ccccc13)C2 | µM | = | 1.1 |
| O=C(O)c1cc(CN2CCC(c3ccc(Br)cc3)CC2)c2ccccn2c1=O | µM | = | 1.2 |
| O=C(O)c1cc(CN2CCC(c3cncnc3)CC2)c2ccccn2c1=O | µM | = | 7 |
| O=C(O)c1cc(CN2CCC(c3cc[nH]n3)CC2)c2ccccn2c1=O | µM | = | 1.5 |
| O=C(O)c1cc(CN2CCc3ccccc3C2c2cccs2)c2ccccn2c1=O (configuration not stated) | µM | = | 0.6 |
| O=C(O)c1cc(CN2CCC(n3cnc4ccccc43)CC2)c2ccccn2c1=O | µM | = | 0.55 |
| O=C(O)c1cc(CN2CCC(n3cccn3)CC2)c2ccccn2c1=O | µM | = | 0.78 |
| COc1ccc2c(c1)CCN(Cc1cc(C(=O)O)c(=O)n3ccccc13)C2 | µM | = | 1.4 |
| O=C(O)c1cc(CN2CCc3ccccc3C2C2CCCCC2)c2ccccn2c1=O (configuration not stated) | µM | > | 100 |
| O=C(O)c1cc(CN2CCc3cc(-c4ccccc4)ccc3C2)c2ccccn2c1=O | µM | = | 0.56 |
| O=C(O)c1cc(CN2CCc3ncccc3C2)c2ccccn2c1=O | µM | = | 0.83 |
| O=C(O)c1cc(CN2CCc3cc(Cl)ccc3C2)c2ccccn2c1=O | µM | = | 0.33 |
| O=C(O)c1cc(CN2CCC(c3cccc(F)c3)CC2)c2ccccn2c1=O | µM | = | 1.5 |
